subject of test: T1, cynomolgus monkey IL-33 expressed with a C-terminal hexahistidine tag (cynomolgus monkey)
T1 construct: also called MfIL-33-6His; Mf-IL-33-6His
T1 chain: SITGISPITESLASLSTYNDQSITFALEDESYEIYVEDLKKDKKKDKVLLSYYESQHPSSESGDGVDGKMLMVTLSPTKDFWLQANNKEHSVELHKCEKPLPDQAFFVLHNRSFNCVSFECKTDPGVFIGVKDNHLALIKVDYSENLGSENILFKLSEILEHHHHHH
run description: SPR 25C, pH6.0 chase, mAb captured
measurement kind: t½ Ratio (pH 7.4/pH 6.0)

>>> measured_value("H4H9675P (antibody, human IgG4, V domains shown, Human IgG4 Fc (H4H)) VH: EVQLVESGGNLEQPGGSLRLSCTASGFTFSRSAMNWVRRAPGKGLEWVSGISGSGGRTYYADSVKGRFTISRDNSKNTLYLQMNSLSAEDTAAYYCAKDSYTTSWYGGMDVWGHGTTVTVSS VL: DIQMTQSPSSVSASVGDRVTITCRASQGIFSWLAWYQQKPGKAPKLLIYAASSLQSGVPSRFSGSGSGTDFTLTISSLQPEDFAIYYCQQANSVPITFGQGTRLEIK")
1.2
>>> measured_value("H1M9566N (antibody, mouse IgG1, V domains shown, Human variable domains, mouse IgG1 Fc (H1M)) VH: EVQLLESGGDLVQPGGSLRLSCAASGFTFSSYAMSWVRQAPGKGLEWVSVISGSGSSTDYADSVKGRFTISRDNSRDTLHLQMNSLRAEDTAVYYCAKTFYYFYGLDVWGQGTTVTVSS VL: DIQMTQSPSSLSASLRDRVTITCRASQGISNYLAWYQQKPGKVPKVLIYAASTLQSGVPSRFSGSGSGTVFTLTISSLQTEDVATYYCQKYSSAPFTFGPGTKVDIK")
1.3
>>> measured_value("H4H9659P (antibody, human IgG4, V domains shown, Human IgG4 Fc (H4H)) VH: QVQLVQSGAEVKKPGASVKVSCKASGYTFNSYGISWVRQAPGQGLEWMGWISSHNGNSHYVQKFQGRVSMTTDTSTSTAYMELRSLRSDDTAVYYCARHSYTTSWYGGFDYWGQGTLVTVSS VL: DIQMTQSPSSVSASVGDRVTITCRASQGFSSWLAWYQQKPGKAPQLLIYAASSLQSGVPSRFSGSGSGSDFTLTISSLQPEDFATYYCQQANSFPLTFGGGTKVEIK")
0.3
>>> measured_value("H4H9665P (antibody, human IgG4, V domains shown, Human IgG4 Fc (H4H)) VH: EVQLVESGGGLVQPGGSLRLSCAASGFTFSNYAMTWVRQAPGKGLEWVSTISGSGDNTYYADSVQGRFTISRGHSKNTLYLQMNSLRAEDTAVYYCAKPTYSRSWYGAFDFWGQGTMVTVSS VL: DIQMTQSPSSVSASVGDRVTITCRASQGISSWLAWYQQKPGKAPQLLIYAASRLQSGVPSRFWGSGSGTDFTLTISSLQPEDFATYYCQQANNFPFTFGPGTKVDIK")
1.3
>>> measured_value("H4H9667P (antibody, human IgG4, V domains shown, Human IgG4 Fc (H4H)) VH: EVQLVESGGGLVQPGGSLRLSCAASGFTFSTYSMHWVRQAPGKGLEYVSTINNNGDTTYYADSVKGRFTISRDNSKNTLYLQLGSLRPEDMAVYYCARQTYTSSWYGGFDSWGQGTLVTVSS VL: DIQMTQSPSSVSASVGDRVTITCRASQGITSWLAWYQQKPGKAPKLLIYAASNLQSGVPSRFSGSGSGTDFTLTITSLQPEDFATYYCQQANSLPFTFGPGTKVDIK")
0.7

Where these numbers come from: patent US20160362487A1
